Entry source: patent US20240124465A1

Test system: MHH-CALL-4 cells
Test: Cytotoxicity assay (resazurin, 72 hours)
Format: cell-based
Parameters: unit not given beside the values
Conditions: area under the dose-response curve
READOUT_KIND: AUC
Numbers only.

These recorded examples may help you get a feel for the data.
{"COMPOUND": "CCS(=O)(=O)C1CC(CC#N)(n2cc(-c3nc(Nc4ccc(C(=O)NC5CCN(c6ccc7c(c6)C(=O)N(C6CCC(=O)NC6=O)C7=O)CC5)cc4)nc4[nH]ccc34)cn2)C1 (stereo not drawn)", "SYSTEM_TESTED": "MHH-CALL-4 cells", "AUC": 262}
{"COMPOUND": "CCS(=O)(=O)N1CC(CC#N)(n2cc(-c3nc(Nc4ccc(C(=O)NCCCN5CCC6(CC5)CCN(c5ccc(C7CCC(=O)NC7=O)cc5)CC6)cc4)nc4[nH]ccc34)cn2)C1 (stereo not drawn)", "SYSTEM_TESTED": "MHH-CALL-4 cells", "AUC": 105}

Here's the next entry for you.
Tell me the measured AUC of CCS(=O)(=O)N1CC(CC#N)(n2cc(-c3nc(Nc4ccc(C(=O)N5CCC6(CC5)CCN(c5ccc(C7CCC(=O)NC7=O)cc5)CC6)cc4)nc4[nH]ccc34)cn2)C1 (stereo not drawn) , please. 202

* * *

Biological target: JAK1 (Homo sapiens, UniProt P23458)
Construct: endogenous in cells; host or cells: MHH-CALL-4
Sequence (P23458 whole entry): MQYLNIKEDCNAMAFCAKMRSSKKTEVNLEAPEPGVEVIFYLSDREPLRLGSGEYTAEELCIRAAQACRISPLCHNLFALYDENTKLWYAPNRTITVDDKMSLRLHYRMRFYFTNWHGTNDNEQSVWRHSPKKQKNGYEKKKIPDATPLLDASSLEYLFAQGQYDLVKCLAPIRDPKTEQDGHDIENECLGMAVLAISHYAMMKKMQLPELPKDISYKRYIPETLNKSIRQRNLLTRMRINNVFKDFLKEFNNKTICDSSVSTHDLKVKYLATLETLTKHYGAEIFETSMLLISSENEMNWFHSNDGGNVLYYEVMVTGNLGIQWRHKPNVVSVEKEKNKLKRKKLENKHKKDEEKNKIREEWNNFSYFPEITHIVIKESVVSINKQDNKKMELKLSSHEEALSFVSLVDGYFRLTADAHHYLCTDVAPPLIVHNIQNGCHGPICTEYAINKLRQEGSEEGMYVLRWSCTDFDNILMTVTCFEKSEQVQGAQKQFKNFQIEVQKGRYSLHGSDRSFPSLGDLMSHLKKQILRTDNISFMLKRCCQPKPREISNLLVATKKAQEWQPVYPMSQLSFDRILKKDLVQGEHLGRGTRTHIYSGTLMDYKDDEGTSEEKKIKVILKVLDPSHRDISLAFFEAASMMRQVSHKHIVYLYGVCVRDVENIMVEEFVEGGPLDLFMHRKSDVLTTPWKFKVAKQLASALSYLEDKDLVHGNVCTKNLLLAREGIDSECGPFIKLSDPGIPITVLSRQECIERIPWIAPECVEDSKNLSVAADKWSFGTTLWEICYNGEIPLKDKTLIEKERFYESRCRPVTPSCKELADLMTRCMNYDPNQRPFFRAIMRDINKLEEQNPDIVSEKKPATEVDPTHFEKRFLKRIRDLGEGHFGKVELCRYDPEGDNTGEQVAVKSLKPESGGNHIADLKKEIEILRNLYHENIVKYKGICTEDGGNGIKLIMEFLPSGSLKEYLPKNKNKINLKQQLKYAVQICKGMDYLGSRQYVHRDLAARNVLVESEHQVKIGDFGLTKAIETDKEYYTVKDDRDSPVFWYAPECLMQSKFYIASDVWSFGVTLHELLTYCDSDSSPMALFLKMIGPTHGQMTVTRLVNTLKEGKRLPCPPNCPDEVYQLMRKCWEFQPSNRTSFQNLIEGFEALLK
Assay: Western blot assay, JAK1 protein degradation
Format: cell-based
Details: MHH-CALL-4 cells, vehicle control = 100%
Can you tell me Target Protein Degradation (% remaining at 100 nM, 24 h) JAK1 for the items I'm about to list?

These recorded examples may help you get a feel for the data.
{"MOLECULE": "CCS(=O)(=O)N1CC(CC#N)(n2cc(-c3nc(Nc4ccc(C(=O)NCC5CCN(c6ccc(C7CCC(=O)NC7=O)cc6)CC5)cc4)nc4[nH]ccc34)cn2)C1 (centres unmarked)", "REPORTED": "107 % remaining"}
{"MOLECULE": "CCS(=O)(=O)N1CC(CC#N)(n2cc(-c3nc(Nc4ccc(C(=O)NCCCCNc5cccc(C6CCC(=O)NC6=O)c5)cc4)nc4[nH]ccc34)cn2)C1 (centres unmarked)", "REPORTED": "17 % remaining"}
{"MOLECULE": "CCS(=O)(=O)N1CC(CC#N)(n2cc(-c3nc(Nc4ccc(C(=O)NCCCCOc5cccc(C6CCC(=O)NC6=O)c5)cc4)nc4[nH]ccc34)cn2)C1 (centres unmarked)", "REPORTED": "97 % remaining"}
{"MOLECULE": "CCS(=O)(=O)N1CC(CC#N)(n2cc(-c3nc(Nc4ccc(C(=O)NCCCCOc5ccc(C6CCC(=O)NC6=O)cc5)cc4)nc4[nH]ccc34)cn2)C1 (centres unmarked)", "REPORTED": "124 % remaining"}

Tell me the measured Target Protein Degradation (% remaining at 100 nM, 24 h) JAK1 of CCS(=O)(=O)N1CC(CC#N)(n2cc(-c3nc(Nc4ccc(C(=O)N5CCC(CN6CCN(c7ccc(C8CCC(=O)NC8=O)cc7)CC6)CC5)cc4)nc4[nH]ccc34)cn2)C1 (centres unmarked) , please. 59 % remaining

* * *

Can you tell me Target Protein Degradation (% remaining at 100 nM, 24 h) JAK1 for the items I'm about to list?
Biological target: JAK1 (Homo sapiens, UniProt P23458)
Construct: endogenous in cells; host or cells: MHH-CALL-4
Assay: Western blot assay, JAK1 protein degradation
Format: cell-based
Conditions: MHH-CALL-4 cells, vehicle control = 100%
Give bare numbers, in % remaining.

These recorded examples may help you get a feel for the data.
{"MOLECULE": "CCS(=O)(=O)N1CC(CC#N)(n2cc(-c3nc(Nc4ccc(C(=O)NC5CCN(c6ccc(C7CCC(=O)NC7=O)cc6)CC5)cc4)nc4[nH]ccc34)cn2)C1 (stereo not drawn) [Compound 46]", "REPORTED": 98}
{"MOLECULE": "CCS(=O)(=O)N1CC(CC#N)(n2cc(-c3nc(Nc4ccc(C(=O)NCCOCCOc5ccc(C6CCC(=O)NC6=O)cc5)cc4)nc4[nH]ccc34)cn2)C1 (stereo not drawn) [Compound 11]", "REPORTED": 110}

Please give Target Protein Degradation (% remaining at 100 nM, 24 h) JAK1 for each item listed below.
1. CCS(=O)(=O)N1CC(CC#N)(n2cc(-c3nc(Nc4ccc(C(=O)NCC5CCN(c6ccc7c(c6)C(=O)N(C6CCC(=O)NC6=O)C7=O)CC5)cc4)nc4[nH]ccc34)cn2)C1 (stereo not drawn) [Compound 31]
2. CCS(=O)(=O)N1CC(CC#N)(n2cc(-c3nc(Nc4ccc(C(=O)NCCN5CCN(c6ccc(C7CCC(=O)NC7=O)cc6)CC5)cc4)nc4[nH]ccc34)cn2)C1 (stereo not drawn) [Compound 37]
3. CCS(=O)(=O)N1CC(CC#N)(n2cc(-c3nc(Nc4ccc(C(=O)NCCCCCNc5ccc(C6CCC(=O)NC6=O)cc5)cc4)nc4[nH]ccc34)cn2)C1 (stereo not drawn) [Compound 7]
4. CCS(=O)(=O)N1CC(CC#N)(n2cc(-c3nc(Nc4ccc(C(=O)NCCCCN5CCN(c6ccc(C7CCC(=O)NC7=O)cc6)CC5)cc4)nc4[nH]ccc34)cn2)C1 (stereo not drawn) [Compound 19]

1: 58; 2: 120; 3: 78; 4: 87
